Please go through the items and note down their self-cleavage kobs at 10000 uM GlcN6P.
B1: glmS ribozyme (parent)
chain: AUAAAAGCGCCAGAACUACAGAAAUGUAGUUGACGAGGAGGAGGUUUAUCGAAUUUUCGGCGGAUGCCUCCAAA

variants of: B1; assay: self-cleavage kobs at 10000 uM GlcN6P; higher = faster cleavage; RNA array; settings: with glucosamine-6-phosphate
Fewer inactive variants are shown than the library holds.
Field format: number, assumed s⁻¹, no unit text.

Problem: # input variant: C11A A53U ; wanted: its self-cleavage kobs at 10000 uM GlcN6P
Result: 9.96e-05

Problem: Which value of self-cleavage kobs at 10000 uM GlcN6P has been reported for C58A C71A in the records?
Result: 4.88e-05

Problem: I am curious: what self-cleavage kobs at 10000 uM GlcN6P value has been reported for A15C A42G ?
Result: 0.00721

Problem: Fill in: self-cleavage kobs at 10000 uM GlcN6P of C67A C70A is ___
Result: 4.28e-05

Problem: What does the record list as self-cleavage kobs at 10000 uM GlcN6P for G13C U31C ?
Result: 0.00109

Problem: GET /values?readout=self-cleavage kobs at 10000 uM GlcN6P&item= A6G A15G
Result: 0.000514

Problem: Requested read-out: self-cleavage kobs at 10000 uM GlcN6P. Entry: A15U G29C U47G U54A
Result: 0.000122

Problem: Please report the recorded self-cleavage kobs at 10000 uM GlcN6P for G37C A64G .
Result: 7.49e-05

Problem: State the recorded self-cleavage kobs at 10000 uM GlcN6P for this entry: G37A A52G
Result: 0.000121

Problem: Param item = C16U G29U ; retrieve measured self-cleavage kobs at 10000 uM GlcN6P.
Result: 0.0111

Problem: Using the record for G40C U54G , report its self-cleavage kobs at 10000 uM GlcN6P.
Result: 0.00251

Problem: Given the entry A52G U55A , report its measured self-cleavage kobs at 10000 uM GlcN6P.
Result: 0.00185

Problem: For the variant A53U U54C , what self-cleavage kobs at 10000 uM GlcN6P is on record?
Result: 0.00704

Problem: # query: self-cleavage kobs at 10000 uM GlcN6P of entry G7A U69G
Result: 0.000569

Problem: Query: self-cleavage kobs at 10000 uM GlcN6P; subject: G29U U30G U54A
Result: 0.00383

Problem: // returns reported self-cleavage kobs at 10000 uM GlcN6P for input U56G U57A
Result: 0.000326

Problem: Given the entry A53G U54C , report its measured self-cleavage kobs at 10000 uM GlcN6P.
Result: 0.0169

Problem: Which measured self-cleavage kobs at 10000 uM GlcN6P value corresponds to C16U C50G C67U ?
Result: 0.000119

Problem: self-cleavage kobs at 10000 uM GlcN6P for U55C C58A ?
Result: 0.000455

Problem: # query: self-cleavage kobs at 10000 uM GlcN6P of entry G29U A39G
Result: 0.0129

Problem: Value lookup for self-cleavage kobs at 10000 uM GlcN6P; key = G29C A53G
Result: 0.00209

Problem: Param item = U31C C71G ; retrieve measured self-cleavage kobs at 10000 uM GlcN6P.
Result: 0.000321

Problem: Form field: reported self-cleavage kobs at 10000 uM GlcN6P of U31C U47A
Result: 0.00367

Problem: Tell me the measured self-cleavage kobs at 10000 uM GlcN6P of A12U G29U U30A U31A , please.
Result: 0.000361

Problem: I am curious: what self-cleavage kobs at 10000 uM GlcN6P value has been reported for G32U A53G ?
Result: 0.000847

Problem: Fill in the blank: the reported self-cleavage kobs at 10000 uM GlcN6P of G41A C70U is ____.
Result: 0.0374

Problem: Recorded self-cleavage kobs at 10000 uM GlcN6P of U31G U54A , please.
Result: 0.00833
